FYI, the data here is from paper PMC9482650.

tgt: FRMPD4, Q14CM0
Sequence (Q14CM0 67-160): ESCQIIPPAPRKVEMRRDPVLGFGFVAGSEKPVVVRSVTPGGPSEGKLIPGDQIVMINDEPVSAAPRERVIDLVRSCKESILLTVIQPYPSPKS
assay: holdup assay
Parameters: key: below the threshold = too weak to quantify, mostly under pKd 3.1 to 4
condition: plain residues with an end cap or a label only (N-terminal biotin on a linker: ado-ado)
measured.quantity: pKd

* VRNLPESEEL [MYOZ3, Q8TDC0] | 3.89
* SNAGNTATKA [NOSTRIN, Q8IVI9] | below the threshold
* YYKRPVQEWV [MMP24, Q9Y5R2] | below the threshold
* QSLNRMEYIV [JAG1, P78504] | below the threshold
* VYPNAKVELV [PDLIM4_iso2, P50479;P50479-1] | below the threshold
* QKNRKAQEDL [CES3, Q6UWW8] | below the threshold
* KKAPTNEFYA [SDC4, P31431] | 3.49
* DTTVPESEDL [MYOZ2, Q9NPC6] | 3.66
* HLRARKSEWV [GJD4, Q96KN9] | below the threshold
* LPHPHSTTRV [NLGN2, Q8NFZ4] | below the threshold
